system: SF-295 CNS; assay: NCI tumour cell line growth inhibition, 48 h
Respond with fulfilled for TGI values of 7 µM and above, not fulfilled for values below.

Here are 3 compounds together with their reported answers.
Compound | Classification
COc1cc2ccnc(C#N)c2cc1OCc1ccccc1 | fulfilled
Cc1ccc(C(=O)NC2C(=O)NC(C(C)C)C(=O)N3CCCC3C(=O)N(C)CC(=O)N(C)C(C(C)C)C(=O)OC2C)c2c1Oc1c(c(C(=O)NC3C(=O)NC(C(C)C)C(=O)N4CCCC4C(=O)N(C)CC(=O)N(C)C(C(C)C)C(=O)OC3C)c3nc(-c4ccccc4)c(=O)oc3c1C)N2 (stereo not drawn) | not fulfilled
CCCCCC(=O)OC[n+]1ccc2c(C)c3[nH]c4ccc(OC)cc4c3c(C)c2c1 | not fulfilled

Lookup: Quick check, TGI >= 7 µM? Cc1nc2ccc(-n3ncc(C(=O)c4cc5ccccc5[nH]4)c3N)cc2[nH]1
Found: fulfilled

Lookup: What would you report for COc1ccc2nc3cc([N+](=O)[O-])ccc3c(NCCO)c2c1 ?
Found: fulfilled

Lookup: What would you report for CS(=O)(=O)Nc1cc(-c2ccc3ncc(C#N)c(Nc4ccc(F)c(Cl)c4)c3c2)cnc1Cl ?
Found: not fulfilled

Lookup: What would you report for COc1ccc(C[C@H]2COC(=O)[C@@H]2Cc2ccc(Br)cc2)cc1OC ?
Found: fulfilled

Lookup: What would you report for Cn1c2c(c3ccccc31)CCN1C[C@@H]3CCCC[C@H]3C[C@@H]21 ?
Found: not fulfilled

Taken from PubChem BioAssay (NCI).
